# Tested on: K4 kissing-loop RNA reporter;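 further: bound reporter read as fluorescence of individual clusters on recovered sequencing chips by microscopy, with normalized cluster intensities fitted with a binding model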
# procedure.details: apparent KD of K4 kissing-loop reporter; higher = weaker reporter binding
# condition.label: Eterna round: R107; input ligand: FMN 200 uM
observed.property: apparent KD of K4 kissing-loop reporter (nM)
Entry rule: numbers only, all in nM.

construct.sequence | apparent KD of K4 kissing-loop reporter (nM)
GCGUCACGUCGGGAUACCAGAGAAAUGGCAUUAGCCAAUGACGAGUGAUGUUCGUAGGCGCUCCCUUGGCAGCCCACCGGGAGGA [theeternabot_sameState_KL_Theo_B_21] | 351
GCCUACGUAGCAGGAUAUAGGUAAGUGAGUGAUGUUCAAGAGUUCUGGAGUGAUGUUCCAAUCUGACUAGAAGGGCUACGUAGGC | 58.4
ACGACGCAUAGUGAUACCAGCAUUAUAUGAGUGAUGUUCUACCUAAAAUGGUAAUAAUGAUGCCCUUGGCAGCACUAUGCGUCAG [KL-SSTheoB2] | 400

Entry AAAUAUUCGAGUGAUGUUCGAUAAAUAUCAGAGGAUAUGCUUAAAAGCAGAAGGCUGUAUUUCUAUUUGUUAUGUAAUUUUAUAA [JR_SSFMNA_Sub021] : reported apparent KD of K4 kissing-loop reporter = ?
125

Entry AAUAAUAAUAAAUAUAGAUUGAUGAGCAAACGAGGACCGGUACGGCCGCCACUCGAGUGAUGUUCGAGAAGCUCAUCAAUCAUAA [AK4.6 Exc Tryptophan A] : reported apparent KD of K4 kissing-loop reporter = ?
180

Entry GAACGAGUGAUGUUCGUUAUUAUGCAUUCCGAGGAUAUGGGAUUAGCCAGAAGGCGGAAUCAAUCUUCGAGUGAUGUUCGAAGAU [Same State FMN A GF 11] : reported apparent KD of K4 kissing-loop reporter = ?
129

Reference for the values: the supplement of paper PMC9170038
